Experiment description: small-molecule microarray binders of probe aDKK1, primary screen, biochemical, biotinylated probe, 635/667 nm fluorescence (AID 1099);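 note: score merges 667nm spot fluorescence with signal to noise across triplicate slides; reference of the scale not given here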
Condition context: higher = more signal
Measurement name: composite z-score
Reply with just the number.

COC(=O)[C@@]1(CCC(=O)OC(C)(C)C)N=C(c2ccc(OCCCO)cc2)O[C@H]1c1ccccc1CN=[N+]=[N-]    0.425
CCCC[C@H]1OB(O)C[C@H]2C1=C(COC)C[C@H]1C(=O)C=CC(=O)[C@H]12    -0.177
CCC(CC)C(O)C1C=CC2C(=O)N(C)C(=O)C2N1N1CCCCC1 (stereo not given)    1.72

Entry under review: `COC(=O)Cn1c(C(=O)N(C)C)cc2c1C[C@H]1CN(C(=O)c3ccccc3)[C@@](Cc3ccc(OC)cc3)(C(=O)OC)[C@@H]21` . Reported composite z-score?
0.311

Next compound: C=CCC(OC(C)=O)[C@@H]1[C@@H](N(Cc2ccc(-c3cccc(C(F)(F)F)c3)o2)C(=O)Cc2ccc(F)cc2)c2cc(OCCCO)ccc2N1C(=O)c1ccc2ccccc2n1 (stereo not given in full)
0.0195

Next compound: `CCCC[C@@H]1C[C@H]1[C@@H](NC(=O)c1ccc(C(F)(F)F)cc1)c1ccc(C(=O)OC)cc1`
0.172

Next compound: C=CCC(OC(C)=O)[C@@H]1[C@@H](N(Cc2cccc3ccccc23)C(=O)c2ccc(-c3ccccc3)cc2)c2cc(OCCCO)ccc2N1C(=O)c1ccc2ccccc2n1 (stereo not given in full)
0.052

Next compound: `CC(C)CNC(=O)[C@@H]1c2ccccc2C(=O)N(C(C)C)[C@H]1c1ccc(CO)cc1`
0.0026

Next compound: `O=C(NCC(F)(F)F)[C@@H]1c2ccccc2C(=O)N(CC23CC4CC(CC(C4)C2)C3)[C@H]1c1ccc(CO)cc1`
-0.0677

Next compound: `COCCOC(=O)N1C(=O)[C@@]2(c3cc(C#CCC(C(=O)OC)C(=O)OC)ccc31)[C@H](C(N)=O)[C@H]1C(=O)O[C@H](c3ccccc3)[C@H](c3ccccc3)N1[C@@H]2c1ccc(OCCO)cc1`
0.271
